- measuredTarget: human B7-H3 (human) (UniProt Q5ZPR3)
- procedureText: flow cytometry (FACS) on CHO-K1/B7-H3 cells

binder	quantityUnit	EC50
34A9C12 (antibody, V domains shown) VH: QIQLVQSGPELKKSGETVKISCKASGFTNYGINWVKQAPGKGLKWMGWINPYSGVPTYADDFKGRFAFSLETSASTAYLQINNLKNEDSATYFCARDDGFHYTMDYWGQGTSVTVSS VL: DVVLIQTPLSLPVSLGDQASISCRSSQNLVHSNGITYLHWYLQKPGQSPKLLIYKVSNRFSGVPDRFSGSGSGTDFTLKISRVEAEDLGVYFCSQSTLVPWTFGGGTKLEIK	nM	0.822
43H11G12 (antibody, V domains shown) VH: QIQLVQSGPELKKPGETVKISCKASGYNFRDFGMNWVKQAPGKGLKWMGWLNSYSGVPTYADDFKGRFVLSLETSASTAYLQINNLINEDTATYFCGRDDGYNYTMNYWGQGTSVTVSS VL: DVVMTQAPLSLPVSLGDQASISCRSSQSLVHSNGITYLHWYLQRAGQSPQLLIYKVSNRFSGVPDRFSGSGSGTDFTLKISRVEAEDLGVYFCSQSTHVPWTFGGGTKLEIK	nM	6.38
37F11A10 (antibody, V domains shown) VH: QIQLVQSGPELKKPGETVKISCKASGDTFRNYGMNWVKQAPGKGLKWMGWINPYSGVPTYADDFKGRFAFSLETSASTAFLQINNLKNEDTATYFCARDDGFHYTMDYWGLGTSVTVSS VL: DVVMTQTPLSLPVSLGDQASISCRSSQSLLHSNGITYLHWYLQKPGQSPKLLTYKVSHRFSGVPDRFSGSGSGTDFTLKISRVEAEDLGVYFCSQSTHVPWTFGGGTKLEIR	nM	1.38

Just for reference, patent US20250188167A1 is where these values come from.
